Provenance of the data: ChEMBL document CHEMBL1155481

# PROTOCOL_DESCRIPTION: Chemical stability of the compound
# Assay type: physicochemical
ASSAY_METRIC: Stability

- CC(=O)c1ccc(/C=C/C(=O)Nc2ccc(-c3nc4ccc(C#N)cc4n3O)cc2)cc1: Stable
- CC(=O)c1ccc(/C=C/C(=O)Nc2ccc(-c3nc4c(CC(=O)O)cc([N+](=O)[O-])cc4n3O)cc2)cc1: Stable
- CC(=O)c1ccc(/C=C/C(=O)Nc2ccc(-c3nc4c(CC(=O)O)cc([N+](=O)[O-])cc4n3O)cc2)cn1: Stable
- CSc1ccc(/C=C/C(=O)Nc2ccc(-c3nc4ccc([N+](=O)[O-])cc4n3O)cc2)cn1: Stable
- CSc1ccc(/C=C/C(=O)Nc2ccc(-c3nc4ccc(C#N)cc4n3O)cc2)cn1: Stable
- CC(=O)c1ccc(/C=C/C(=O)N(CC(=O)O)c2ccc(-c3nc4ccc(C#N)cc4n3O)cc2)cc1: Stable
- CSc1ccc(/C=C/C(=O)Nc2ccc(-c3nc4ccc(C#N)cc4n3O)cc2)cc1: Stable
- CC(=O)c1ccc(/C=C/C(=O)N(CC(N)=O)c2ccc(-c3nc4ccc([N+](=O)[O-])cc4n3O)cc2)cc1: Stable
